# measurement.target: Lysine-specific demethylase 5B (Homo sapiens)
# procedure.details: Primary screen for KDM5B Histone Demethylases FDH-coupled qHTS; note: nearly all actives have a fitted effect of over 70% in size
# test.context: FDH-coupled NADH fluorescence (FDH is formaldehyde dehydrogenase); series mostly up to 57.7 µM
Hit rate of the full screen: of about 220,000 compounds, about 5,700 (2.6%) were called active. Inconclusive results (about 18%) are left out. Calls come from the whole dose curve; as a rule, active = well fitted inhibition curve with a large enough effect; inconclusive = small, poorly fitted or top-dose-only effect; inactive = no such curve, though single readings can be large or run the other way. The entries come from a sample that favours actives as a whole.
Outcomes: active, inactive

[[record]]
compound = "CC(C)(Oc1nn(CCOc2ccccc2)c2ccccc12)C(=O)NCCCn1ccnc1"
assigned_category = "inactive"

[[record]]
compound = "CCn1ccnc1CN(C)C1CCCN(CCc2ccccc2)C1 (stereo unspecified)"
assigned_category = "inactive"

[[record]]
compound = "CCCc1nnc2sc(-c3ccc4c(c3)OCCO4)nn12"
assigned_category = "inactive"

[[record]]
compound = "CCCCn1cnc2c1c(=O)n(CC(=O)Nc1ccccc1C)c(=O)n2CCCC"
assigned_category = "inactive"

[[record]]
compound = "C=CCNC(=O)c1cn2c(n1)CN(C(=O)c1ccccc1F)CC2"
assigned_category = "inactive"

[[record]]
compound = "O=C(NCCCn1ccnc1)c1ccc(-c2ncc3cnc(-c4cccc(F)c4)cn23)cc1"
assigned_category = "active"

[[record]]
compound = "C=CCN(C)C(=O)[C@@H](C)C1CC[C@@]2(C)Cc3sc(Nc4c(Cl)cccc4Cl)nc3[C@@H](C)[C@@H]2[C@H]1O (stereo partly specified)"
assigned_category = "inactive"

[[record]]
compound = "C=CCNC(=O)c1ccc2ccnn2c1"
assigned_category = "active"

[[record]]
compound = "Cc1occc1C(=O)NC1CCCN(Cc2ccc(CC(C)C)cc2)C1 (stereo unspecified)"
assigned_category = "inactive"

[[record]]
compound = "O=C(Nc1ccc(N2CCOCC2)c(Cl)c1)c1ccc2c3c(cccc13)CC2"
assigned_category = "inactive"

[[record]]
compound = "CN1[C@@H](CCC(=O)N2CCN(c3ccccn3)CC2)CNC(=O)[C@@H]2[C@H]1CCN2Cc1csnn1"
assigned_category = "active"

[[record]]
compound = "Cn1cc([C@@H](NC(=O)CCc2cn3ccccc3n2)C2CC(O)C2)cn1 (stereo partly specified)"
assigned_category = "active"

[[record]]
compound = "CN(C)c1ncccc1CNC(=O)Cc1ccccc1F"
assigned_category = "inactive"

[[record]]
compound = "O=C(CSc1ncnc2sccc12)c1ccc2c(c1)OCCCO2"
assigned_category = "inactive"

[[record]]
compound = "CN1[C@@H](CCC(=O)N2CCN(c3ccccc3)CC2)CNC(=O)[C@H]2NCC[C@H]21"
assigned_category = "inactive"

[[record]]
compound = "C=CCN(C)C(=O)[C@@H](C)C1CC[C@@]2(C)Cc3sc(NS(=O)(=O)c4ccc(Cl)cc4)nc3[C@@H](C)[C@@H]2[C@H]1O (stereo partly specified)"
assigned_category = "active"

[[record]]
compound = "O=S(=O)(NCCc1cn2ccccc2n1)c1cc(Cl)ccc1Cl"
assigned_category = "inactive"

[[record]]
compound = "COc1ccc(C(=O)N[C@H](c2cnn(C)c2)C2CC(O)C2)c(F)c1F (stereo partly specified)"
assigned_category = "inactive"

[[record]]
compound = "C=CCNC(=O)c1cn2c(n1)CN([S+](C)(=O)[O-])CC2"
assigned_category = "inactive"

[[record]]
compound = "Cc1cc(C)cc(-c2nnc(SCC(=O)N3CCCC(C)C3)o2)c1 (stereo unspecified)"
assigned_category = "inactive"

[[record]]
compound = "COc1ccc(NC(=O)Cc2c(C)c3ccc(O)cc3oc2=O)cc1"
assigned_category = "inactive"

